Target: Tyrosine-protein phosphatase non-receptor type 1 (Homo sapiens, UniProt P18031)
Experiment: Inhibition of human recombinant PTP1B assessed as p-nitrophenol production
# note: exactly 8 µM is not below, so it is Not fulfilled; use Fulfilled for IC50 strictly under it

Observe how each entry below is paired with its result.
>  <chemSmiles>
CC1(C)C=Cc2cc3c(cc2O1)OC[C@H]1c2ccc(O)cc2O[C@@H]31

>  <testTarget>
Tyrosine-protein phosphatase non-receptor type 1 (Homo sapiens, UniProt P18031)

>  <class>
Fulfilled

$$$$
>  <chemSmiles>
O=Cc1c(O)ccc2c1O[C@H]1c3ccc(O)cc3OC[C@@H]21

>  <testTarget>
Tyrosine-protein phosphatase non-receptor type 1 (Homo sapiens, UniProt P18031)

>  <class>
Not fulfilled

$$$$
>  <chemSmiles>
CC(C)=CCc1cc2c(cc1O)O[C@H]1c3ccc(O)c(CC=C(C)C)c3OC[C@@H]21

>  <testTarget>
Tyrosine-protein phosphatase non-receptor type 1 (Homo sapiens, UniProt P18031)

>  <class>
Fulfilled

$$$$

(Q) Hi there! Is IC50 for `CC(C)=CCc1c(O)ccc2c1OC[C@H]1c3ccc(O)cc3O[C@@H]21` below 8 µM, do you know?
(A) Not fulfilled

(Q) In plain terms, does `CC(C)=CCc1c(O)ccc2c1OC[C@H]1c3ccc4c(c3O[C@@H]21)C=CC(C)(C)O4` come in under 8 µM for IC50?
(A) Fulfilled

(Q) Please state whether IC50 is below 8 µM for `CC(C)=CCc1cc2c(cc1O)OC[C@@]1(O)c3ccc4c(c3O[C@@H]21)C=CC(C)(C)O4`
(A) Not fulfilled

(Q) Just wondering, is IC50 of `COc1ccc2c(c1CC=C(C)C)O[C@H]1c3ccc(O)cc3OC[C@@]21OC` below 8 µM?
(A) Not fulfilled

====

Target: Tyrosine-protein phosphatase non-receptor type 1 (Homo sapiens, UniProt P18031)
Sequence (P18031 whole entry): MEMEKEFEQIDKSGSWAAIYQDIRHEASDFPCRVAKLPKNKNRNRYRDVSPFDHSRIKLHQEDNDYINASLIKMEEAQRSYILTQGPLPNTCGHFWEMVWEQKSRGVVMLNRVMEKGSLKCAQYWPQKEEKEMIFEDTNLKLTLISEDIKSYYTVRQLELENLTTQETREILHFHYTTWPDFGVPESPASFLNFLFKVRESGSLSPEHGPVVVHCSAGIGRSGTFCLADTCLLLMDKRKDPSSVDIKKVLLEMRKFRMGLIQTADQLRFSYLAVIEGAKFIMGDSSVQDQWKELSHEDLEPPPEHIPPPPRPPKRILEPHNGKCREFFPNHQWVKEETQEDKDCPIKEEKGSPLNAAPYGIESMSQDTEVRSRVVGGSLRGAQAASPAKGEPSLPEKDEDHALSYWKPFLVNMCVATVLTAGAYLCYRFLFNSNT
Experiment: Inhibition of human recombinant PTP1B assessed as p-nitrophenol production
pIC50: −log10 of the molar value.
Reported pIC50 values follow for various compounds

See these solved cases before continuing.
>  <chemSmiles>
CC(C)=CCc1c(O)ccc2c1OC[C@H]1c3ccc4c(c3O[C@@H]21)OC(C)(C)C=C4

>  <pIC50>
5.19

$$$$
>  <chemSmiles>
COc1cc2c(cc1O)O[C@H]1c3cc(CC=C(C)C)c(OC)cc3OC[C@@H]21

>  <pIC50>
< 4.52

$$$$
>  <chemSmiles>
CC(C)=CCc1cc2c(cc1O)OC[C@H]1c3ccc(O)c(CC=C(C)C)c3O[C@@H]21

>  <pIC50>
< 4.52

$$$$
>  <chemSmiles>
CC(C)=CCc1cc2c(cc1O)O[C@H]1c3ccc(O)cc3OC[C@@H]21

>  <pIC50>
< 4.52

$$$$
>  <chemSmiles>
CC(C)=CCc1c(O)ccc2c1O[C@H]1c3ccc(O)cc3OC[C@@H]21

>  <pIC50>
< 4.52

$$$$

(Q) Enter pIC50 (test system Tyrosine-protein phosphatase non-receptor type 1 (Homo sapiens, UniProt P18031)) for `COc1cc2c(cc1O)O[C@H]1c3cc(CC=C(C)C)c(O)cc3OC[C@@H]21`
(A) < 4.52

(Q) Please respond with reported pIC50 (system Tyrosine-protein phosphatase non-receptor type 1 (Homo sapiens, UniProt P18031)) for `COc1ccc2c(c1CC=C(C)C)O[C@H]1c3cc(CC=C(C)C)c(O)cc3OC[C@@]21O` .
(A) 4.68
